Data provenance is PubChem BioAssay (NCI).

As shown below, each of these molecules has a reported GI50 value.
- Test system: SK-OV-3 ovarian
- Experimental protocol: NCI tumour cell line growth inhibition, 48 h

In [3]: df
Out[3]:
                structure_as_smiles     assay_system    value
0  Nc1nc(OCc2cc(Br)cs2)c2[nH]cnc2n1  SK-OV-3 ovarian  21.1 µM

GI50 in this record for O=C1c2nsnc2C(=O)c2c(F)c(F)c(F)c(F)c21 : 2.04 µM

Memo: COc1ccc2c(c1)[n+](=O)c(C(=O)c1ccco1)c(C(F)(F)F)n2[O-] , reported GI50: 3.15 µM

* * *

TGI overview
- System: SK-MEL-28 melanoma
- Experimental protocol: NCI tumour cell line growth inhibition, 48 h

In [3]: df
Out[3]:
                                   compound  parameter_measured     value
0  COc1ccc2c(c1)[nH]c(=O)c1c3cc(OC)ccc3cn21                 TGI   2.01 µM
1  Cn1cc(C2=C(c3cn(C)c4c([N+](=O)[O-])cccc34)C(=O)NC2=O)c2ccccc21                 TGI   > 25 µM
2  O=C(O)c1ccc(NC(NC(=O)C(C(F)(F)F)C(F)(F)F)(C(F)(F)F)C(F)(F)F)cc1                 TGI  > 100 µM

# TGI of CCOC(=O)CSc1nnc2cc(CN3CCCC3)c(-c3ccc(Cl)cc3)nn12 = > 100 µM

Per the record, CCOC(=O)c1cnc2n(c1=N)[C@H]1CCCC[C@@H]1N2 has TGI of > 100 µM

Record CCOC(=O)[C@@]12C3C=CC(CC3)[C@]1(C(=O)c1ccccc1)C(=O)C(=O)N2c1ccccc1 (stereo partly specified) , field TGI: > 100 µM

Record NCCN1C(=O)CN=C(c2ccc(Cl)cc2)c2cc(Cl)ccc21 . Reported TGI: > 100 µM

response.value for CN(NC(=O)c1cccs1)C1=NCCCCN1 (field: TGI) = > 100 µM

Consider CN(N)c1cc(=O)[nH]c(=O)[nH]1 . Its measured TGI is > 100 µM

Lab note: COc1ccc2c(c1)[n+](=O)c(C(=O)c1ccco1)c(C(F)(F)F)n2[O-] gave TGI of 94.9 µM

Recorded TGI (compound Nc1nc(OCc2cc(Br)cs2)c2[nH]cnc2n1 ): > 100 µM

Recorded TGI (compound CC(=O)NC1=C(NCCN(C)C)C(=O)c2ccccc2C1=O ): > 50 µM

The value of TGI measured for the compound c1ccc(CNCCCCNCCCNCc2ccccc2)cc1 turned out to be 31.2 µM

Quick note, TGI for O=C(CSc1nc2[nH]ncc2c(=O)[nH]1)c1ccc(Cl)cc1 landed at > 100 µM

Input CCCCCCCCCCCCCCCCOCC(Cl)COP(=O)(O)OP(=O)(O)OCC1OC(n2cc(C)c(=O)[nH]c2=O)CC1O (stereo unspecified) . Output TGI: > 100 µM

Record summary for Cc1ccc(N=Nc2ccc(O)c(CN(C)C)c2)cc1 : reported TGI = 41.1 µM

Noted for COc1ccc(OCc2ccc3nc(-c4ccccc4)c(Cl)nc3c2)cc1 : its TGI reads > 100 µM

The recorded TGI for entry Cc1ccc(-c2cc(C(F)(F)F)nn2-c2ccc(S(N)(=O)=O)cc2)cc1 equals > 56.2 µM

The compound CNC(=O)SCC(N)C(=O)O (stereo unspecified) showed TGI equal to > 100 µM

The measured TGI associated with Oc1ccc(N=C2CCC(=C(c3ccccc3)c3ccc(Nc4ccc(O)cc4)cc3)CC2)cc1 reads > 100 µM

Lab note: measured TGI of O=C1NC(=O)C(=C/C=C/c2ccccc2)C(=O)N1 was 3.59 µM

* * *

Parameter TGI: see the listing below.
- System: HCC-2998 colon
- Experimental protocol: NCI tumour cell line growth inhibition, 48 h

Illustrative cases are given below, each with its answer.
>>> df
                                   compound     value
0     O=C1c2nsnc2C(=O)c2c(F)c(F)c(F)c(F)c21   3.14 µM
1  N#Cc1c2c(c(N=P(c3ccccc3)(c3ccccc3)c3ccccc3)n3c1nc1ccccc13)CCCC2  > 100 µM
2          Cc1oc2c(Cl)cc(O)c(Cl)c2c2cccc1-2  > 100 µM
3      CNC(=O)N(CCC#N)CCCN(C(=O)NC)c1ccccc1  > 100 µM
4               O=C(O)CCc1ccc2c(c1)C(=O)CC2  > 100 µM

Documented TGI of O=P1(Oc2ccccc2)N(CCCl)CCN1c1ccccc1 (configuration not stated) : > 100 µM

Briefly, TGI measured for O=C(/C(=C\c1ccc([N+](=O)[O-])cc1)S(=O)Cc1ccc(F)cc1)c1ccc(F)cc1 (configuration not stated) : 3.22 µM

* * *

TGI values by entry
- Tested on: HOP-92 NSCLC
- Experimental protocol: NCI tumour cell line growth inhibition, 48 h

>>> df
                                   compound  assay_system     value
0  C[C@H](Nc1ncnc2nc[nH]c12)c1cc2ccc(F)cc2nc1-c1ccccn1  HOP-92 NSCLC  > 100 µM
1      O=c1[nH]nc(Cc2ccccc2)n1/N=C\c1ccccc1  HOP-92 NSCLC  > 100 µM
2  COC(=O)/C=C(\C(=O)OC)c1c2c3c(cc(OC)c(OC)c3c3ccccc13)CCN2C  HOP-92 NSCLC  > 100 µM
3  CC(C)(C)OC(=O)NCCc1cccc2c1oc1c(CCC(=O)O)cccc12  HOP-92 NSCLC  > 100 µM

Fill in: HOP-92 NSCLC TGI for CC(C)(C)Nc1noc(=O)n1C(C)(C)C = > 100 µM

Tested on HOP-92 NSCLC, the item CC(=O)Nc1cc2c3c(c1)CCCN3CCC2 showed TGI equal to > 100 µM

The reported TGI value, HOP-92 NSCLC, for CNCc1cc(OC)ccc1-c1ccc(OC)c(OC)c1OC reads > 100 µM

Assay HOP-92 NSCLC, sample CC1C[C@H](C)CC(C(O)CC2CC(=O)N(Cc3ccccc3)C(=O)C2)C1O (some centres undefined) , TGI read: > 100 µM

# TGI measured on HOP-92 NSCLC for item O=c1oc2ccccc2c(O)c1/C=N/C(=S)NCCc1ccccc1 = > 74.7 µM

* * *

- Tested on: ACHN renal
- Experimental protocol: NCI tumour cell line growth inhibition, 48 h
Parameter measured: TGI

>>> print(df.to_string())
               compound     value
0  NC(=O)c1ccc(NN=O)nc1  > 100 µM

Measured on ACHN renal, C[C@]12CC/C(=N\O)C=C1CC[C@@H]1[C@@H]2CC[C@]2(C)C(=N/O)/C(=C/c3ccc([N+](=O)[O-])cc3)C[C@@H]12 has a documented TGI of > 100 µM

Record for NNC(=O)CNC(=O)c1ccc(Cl)cc1Cl under target or system ACHN renal: TGI reported as > 100 µM

Response field TGI (ACHN renal) for item COc1c(C(=O)c2ccc([N+](=O)[O-])cc2)cc(C(C)(C)C)cc1C(C)(C)C : > 100 µM

Readout TGI for COC1=CCC=C(C[C@@H]2NCCc3cc(OC)c(OC)cc32)C1 , test system ACHN renal, was > 100 µM

TGI value, target or system ACHN renal, for CCN1C(=O)C(C)S/C1=N\NC(=O)CSc1nc2ccccc2c(=O)n1CC (stereo unspecified) : > 100 µM

* * *

- Tested on: RPMI-8226 leukemia
- Experimental protocol: NCI tumour cell line growth inhibition, 48 h
# reported TGI; entries follow

Consider the reported TGI for these compounds:
>>> print(df.to_string())
                                   compound  parameter_measured     value
0  COC(=O)c1c(O)ccc2c1c1c(n2Cc2ccc(Cl)cc2Cl)C(=O)c2ccccc2C1=O                 TGI   13.5 µM
1  CCCCCCCCN(CCCCCCCC)CCCCCCNc1cc(OC)cc2cccnc12                 TGI   75.4 µM
2  O=C(c1ccccc1)N1C2CCC1C(C(F)(F)F)=C2C(F)(F)F                 TGI  > 100 µM

Item: CCc1c(Cc2[nH]c(Cc3[nH]c(C=O)c(C)c3CC)c(CC)c2CC)[nH]c(C=O)c1C | TGI: > 100 µM

Documented TGI of O=S(=O)(O)c1ccc(N=Nc2c(O)ccc3cc(Br)ccc23)cc1 : > 100 µM

So for COc1ccc2c(CN3CCC(C(=O)O)CC3)cc3cc4c(cc3c2c1)OCO4 , the logged TGI turned out to be 3.59 µM

Item: CN(C)S(=O)(=O)/N=C/c1cccc(/C=N/S(=O)(=O)N(C)C)c1 | TGI: > 100 µM

TGI reading for CC1C[C@H](C)CC(C(O)CC2CC(=O)N(Cc3ccccc3)C(=O)C2)C1O (some centres not stated) : > 100 µM

Entry NC(N)=N/N=C/c1c(-c2cc(Cl)sc2Cl)nc2sccn12 — recorded TGI = 1.61 µM

// TGI value for O=c1[nH]nc(Cc2ccccc2)n1/N=C\c1ccccc1 : > 100 µM

# TGI (compound: CC1(C)Cc2c(C#N)c(N)c3c(c2CO1)C(=O)OC3=O ) is > 100 µM

Per the records, this compound ( S=C1CC(c2ccccc2)Sc2ccccc2N1 (configuration not stated) ) has TGI equal to > 100 µM

Looking up C=CCSC1=N/C(=C\c2cccs2)C(=O)N1CC=C , I found its TGI recorded as 91.3 µM

TGI reading for CCCCC(Sc1cc(Cl)c(C)cc1S(=O)(=O)Nc1n[nH]c(N)n1)C(=O)OC (configuration not stated) : > 10 µM

Short answer for NS(=O)(=O)c1ccc(NC2=CC(=O)C(=O)c3ccccc32)cc1 : TGI was > 100 µM

Lab note: measured TGI of COc1ccc(C(=O)COC(=O)[C@H](C[Se][Se]C[C@H](NC(=O)c2ccc(Br)cc2F)C(=O)OCC(=O)c2ccc(OC)cc2)NC(=O)c2ccc(Br)cc2F)cc1 was 5.69 µM

Consider Cc1ncc2c(=O)c3c(oc2n1)c1ccccc1n3Cc1ccccc1 . Its measured TGI is > 100 µM

What the record says about CCOC(=O)c1c(Cl)nc2ccccc2c1N=[N+]=[N-] : TGI is > 100 µM

Given item CCN1C(=O)N(CC)C2Nn3c(s/c(=C\c4ccccc4Br)c3=O)=NC21 (configuration not stated) , the value recorded as its TGI is 15.2 µM

Entry O=C(c1ccccc1)[C@H]1Nc2ccc(Cl)cc2C2c3ccccc3CC21 (some centres not stated) — recorded TGI = > 100 µM

In plain terms, C[C@H](Nc1ncnc2nc[nH]c12)c1cc2ccc(F)cc2nc1-c1ccccn1 has a documented TGI of > 100 µM

get_value(item= COC(=O)/C=C(\C(=O)OC)c1c2c3c(cc(OC)c(OC)c3c3ccccc13)CCN2C , readout=TGI) returns > 100 µM

Entry under test: CCc1n[nH]c(=O)n1/N=C/c1ccc(C)cc1 . Its TGI was > 100 µM
